readout.kind: melting point

// solved cases for melting point follow
{"molecule": "CN(CCN)C(=O)N1N=C2c3cc(F)ccc3OC[C@@H]2[C@@H]1c1ccccc1 (racemic)", "readout.kind": "melting point", "result": "113 °C"}
{"molecule": "COc1cc(N)c(OC)c(OC)c1OC", "readout.kind": "melting point", "result": "99 to 100 °C"}
{"molecule": "O=c1[nH]c2c(cc1-c1nnc(C3CC3)o1)CN(Cc1ccccc1)CC2", "readout.kind": "melting point", "result": "212 to 214 °C"}
{"molecule": "CCCCNC(=O)NS(=O)(=O)c1c(C(=O)OCC)c(Cl)nn1C", "readout.kind": "melting point", "result": "109 to 111 °C"}
{"molecule": "N#Cc1ccc(OCC(F)(F)C(F)(F)C(F)(F)C(F)(F)COc2ccc([N+](=O)[O-])cc2[N+](=O)[O-])cc1", "readout.kind": "melting point", "result": "89 to 90.6 °C"}

Query :: Value lookup for melting point; key = CCCc1nn(C)c2c(=S)[nH]c(-c3ccccc3OC)nc12
Result :: 160 to 161 °C

Query :: Value lookup for melting point; key = CCOc1sc(C)nc1S(=O)(=O)NC(=O)Nc1nc(OC)cc(OC)n1
Result :: 140 to 143 °C

Query :: Value lookup for melting point; key = O=C(CCCCOc1ccc(O)cc1)C(F)(F)F
Result :: 63 to 64 °C

Query :: Value lookup for melting point; key = Cn1c(Cl)cc(=O)n(C2CCCCC2)c1=O
Result :: 132 to 133 °C

Query :: Value lookup for melting point; key = COc1ccc(C(C#N)C(C)C)cc1OC (stereo not given)
Result :: 45.5 to 49 °C

----------
readout.kind: melting point (°C)

[I] CCOC(Cc1ccc(OCCn2ccc3ccc(C(=O)C4CC4)nc32)cc1)C(=O)OC (stereo not given)
[II] Cc1ccccc1-n1cc(-c2ccccc2)c(CBr)n1
Query :: So which one has the bigger melting point here, I or II ? Record your answer as the label of the chosen record.
Result :: I

----------
# reported melting point; entries follow

// solved cases for melting point follow
{"compound": "Cc1cc(C)c(S(=O)(=O)NC(COc2ccccc2)C(F)(F)F)c(C)c1 (stereo unspecified)", "melting point": "89 to 91 °C"}
{"compound": "CC(C)(S)CN1C(=O)NC(=O)C1=O", "melting point": "168 to 170 °C"}
{"compound": "ON=C(CCC(CN1CCN(c2ncccn2)CC1)C(=NO)c1ccccc1)c1ccccc1 (stereo unspecified)", "melting point": "75 to 78 °C"}
{"compound": "CCc1nc2c(cnn2CC)c(NC2CCOCC2)c1CNC(=O)c1cccc(C(=O)NCc2ccc(F)c(-c3cccc(CN4CCNC(=O)C4)c3)c2)c1", "melting point": "147 to 150 °C"}

Continue with the next compound.
Query :: Value lookup for melting point; key = CCOC(=O)NC(Cc1ccccc1)C(O)C(=O)O (stereo unspecified)
Result :: 138 to 140 °C

----------
readout.kind: melting point

{"compound": "CC(C)(C)C(=O)Oc1ccc(-c2nnn(Cc3ccccc3)n2)cc1", "result": "131 to 134 °C"}
{"compound": "C=C1N(CC)C(=O)OC12CCN(CCCN1c3ccccc3Sc3ccccc31)CC2", "result": "122 to 123 °C"}
{"compound": "O=c1[nH]c2scc(C3CCCCC3)c2[nH]c1=O", "result": "> 270 °C"}

Query :: Value lookup for melting point; key = CC(C)c1ccc2c(c1)C(=O)CC21CNC(=O)C1 (stereo not given)
Result :: 165 to 167 °C

Query :: Value lookup for melting point; key = CCOC(=O)c1ccc(COCc2csc3nc(C(=O)NCc4ccnc(OCC5CCOC5)c4)[nH]c(=O)c23)cc1 (stereo not given)
Result :: 225 °C
